Cited source for all entries: patent US20260273072A1

Exercise: for every item that follows, state its recorded pIC50.
Test system: NCI-H69 cell line
test.description: Cell viability assay for NCI-H69 cell line (EZ-Cytox)
Assay type: cell-based
reported.conditions: Homo sapiens, NCI-H69, 120 h; H69 cells, 5 days, 3000 nM to 0.46 nM
pIC50: −log10 of the molar value.

The recorded pIC50 for COc1cc(C(=O)NN2CCC(CCN3CCN(c4cc(F)c(NC5CCC(=O)NC5=O)cc4F)CC3)CC2)ccc1Nc1ncc2c(n1)N(C1CCCC1)CC(F)(F)C(=O)N2C (stereo not shown) is > 7.52

The recorded pIC50 for CCN1CC(F)(F)C(=O)N(C)c2cnc(Nc3ccc(C(=O)NC4CCC(N(C)CC5CCN(c6ccc(NC7CCC(=O)NC7=O)cc6F)CC5)CC4)cc3OC)nc21 (stereo not shown) is > 7.52

The recorded pIC50 for COc1cc(C(=O)NC2CCC(N(C)CC3CCN(c4cnc(C5CCC(=O)NC5=O)cc4F)CC3)CC2)ccc1Nc1ncc2c(n1)N(C1CCCC1)CC(F)(F)C(=O)N2C (stereo not shown) is > 7.52

The recorded pIC50 for COc1cc(C(=O)NC2CCC(N(C)CC3CCN(c4cnc(C5CCC(=O)NC5=O)cc4C)CC3)CC2)ccc1Nc1ncc2c(n1)N(C1CCCC1)CC(F)(F)C(=O)N2C (stereo not shown) is > 7.52

The recorded pIC50 for COc1cc(-c2nnc(CN3CCC(CCN4CCN(c5cc(F)c(NC6CCC(=O)NC6=O)cc5F)CC4)CC3)o2)ccc1Nc1ncc2c(n1)N(C1CCCC1)CC(F)(F)C(=O)N2C (stereo not shown) is > 6.70

Kindly give each listed record's pIC50.
1. COc1cc(C(=O)NN2C[C@@H]3[C@@H](CCN4CCN(c5ccc(NC6CCC(=O)NC6=O)cc5)CC4)[C@@H]3C2)ccc1Nc1ncc2c(n1)N(C(C)C)CC(F)(F)C(=O)N2C (stereo partly shown)
2. COc1cc(C(=O)NC2CCC(N(C)CC3CCN(c4cnc(C5CCC(=O)NC5=O)cc4C)CC3)CC2)ccc1Nc1ncc2c(n1)N(C)CC(F)(F)C(=O)N2C (stereo not shown)
3. COc1cc(C(=O)N[C@H]2[C@@H]3CN(CCC4CCN(c5ccc(NC6CCC(=O)NC6=O)cc5)CC4)C[C@@H]32)ccc1Nc1ncc2c(n1)N(C(C)C)CC(F)(F)C(=O)N2C (stereo partly shown)
4. COc1cc(C(=O)NN2CCC(CCN3CCN(c4ccc(NC5CCC(=O)NC5=O)c(F)c4)CC3)CC2)ccc1Nc1ncc2c(n1)N(C1CCCC1)CC(F)(F)C(=O)N2C (stereo not shown)
5. COc1cc(C(=O)NC2CCC(N(C)CC3CCN(c4ccc(C5CCC(=O)NC5=O)nc4)CC3)CC2)ccc1Nc1ncc2c(n1)N(C(C)C)CC(F)(F)C(=O)N2C (stereo not shown)
6. COc1cc(C(=O)NN2CCC(CCN3CCN(c4ccc(NC5CCC(=O)NC5=O)nc4)CC3)CC2)ccc1Nc1ncc2c(n1)N(C1CCCC1)CC(F)(F)C(=O)N2C (stereo not shown)

["> 7.00", "> 6.70", "> 7.00", "> 7.52", "> 7.52", "> 7.52"]

Kindly give each listed record's pIC50.
1. COc1cc(C(=O)NC2CC3(CCN(CCC4CCN(c5cc(F)c(NC6CCC(=O)NC6=O)cc5F)CC4)CC3)C2)ccc1Nc1ncc2c(n1)N(C(C)C)CC(F)(F)C(=O)N2C (stereo not shown)
2. COc1cc(C(=O)NN2CCC(CCN3CCN(c4cc(F)c(NC5CCC(=O)NC5=O)cc4OC)CC3)CC2)ccc1Nc1ncc2c(n1)N(C1CCCC1)CC(F)(F)C(=O)N2C (stereo not shown)

["> 7.52", "> 7.52"]
